System: LC-2-ad
Assay: relative viability (nuclei count vs DMSO), 5 days (fraction); higher = more cells survive
Details: first compound 0.8 µM
measurementType: relative viability
The response must contain the number and no unit.

COc1nc(C)cnc1NS(=O)(=O)c1cccnc1-c1ccc(-c2nnco2)cc1 [Zibotentan] + Cc1nc(Nc2ncc(C(=O)Nc3c(C)cccc3Cl)s2)cc(N2CCN(CCO)CC2)n1 [Dasatinib] (partner 0.075 µM) ... 0.625

# next compound below
// query Provide the documented relative viability with LC-2-ad as the system for COc1nc(C)cnc1NS(=O)(=O)c1cccnc1-c1ccc(-c2nnco2)cc1 [Zibotentan] + Nc1nc2[nH]cc(CCc3ccc(C(=O)N[C@@H](CCC(=O)O)C(=O)O)cc3)c2c(=O)[nH]1 [Pemetrexed] (partner 0.2 µM)
// result 0.27

Just for reference, the supplement of paper PMC10307832 is where these values come from.
